Data provenance: patent US20260242478A1

Biological target: T1, Anti-CD28 Fab (SEQ ID NOs: 696, 697)
T1 construct: In the phage ELISA the Fab was biotinylated and captured on neutravidin coated plates
T1 sequence (VH, as listed by the source, chain 1 of 2): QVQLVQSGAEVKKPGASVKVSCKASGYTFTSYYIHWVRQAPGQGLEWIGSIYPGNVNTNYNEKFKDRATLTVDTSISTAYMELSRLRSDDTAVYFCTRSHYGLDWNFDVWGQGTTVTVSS
T1 sequence (VL, as listed by the source, chain 2 of 2): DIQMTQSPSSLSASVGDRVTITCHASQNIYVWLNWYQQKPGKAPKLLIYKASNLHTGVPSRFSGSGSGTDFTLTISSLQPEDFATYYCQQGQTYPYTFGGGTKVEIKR
Experiment: phage ELISA; plate-bound anti-CD28 Fab pre-incubated with CD28 antigen as competitor, anti-M13 HRP detection
Measure: Phage binding ELISA, Anti-CD28 Fab signal in the presence of CD28

INSERT INTO measurements (binder, observed_result) VALUES
  ('YCEGHLPQYMKKCL (Tested as clonal phage supernatant) [Phage-595]', 0.1),
  ('YCEGHAAEYMTKCL (Tested as clonal phage supernatant) [Phage-594]', 0.08),
  ('YCDGHAPEYMEKCM (Tested as clonal phage supernatant) [Phage-598]', 0.07),
  ('YCEGHAPEYMLKCL (Tested as clonal phage supernatant) [Phage-597]', 0.07),
  ('YCEGHTVEYMAKCL (Tested as clonal phage supernatant) [Phage-599]', 0.08);
